List of Ki values.
tested-system: Tyrosine-protein phosphatase non-receptor type 1 (Homo sapiens)
Sequence (P18031 whole entry): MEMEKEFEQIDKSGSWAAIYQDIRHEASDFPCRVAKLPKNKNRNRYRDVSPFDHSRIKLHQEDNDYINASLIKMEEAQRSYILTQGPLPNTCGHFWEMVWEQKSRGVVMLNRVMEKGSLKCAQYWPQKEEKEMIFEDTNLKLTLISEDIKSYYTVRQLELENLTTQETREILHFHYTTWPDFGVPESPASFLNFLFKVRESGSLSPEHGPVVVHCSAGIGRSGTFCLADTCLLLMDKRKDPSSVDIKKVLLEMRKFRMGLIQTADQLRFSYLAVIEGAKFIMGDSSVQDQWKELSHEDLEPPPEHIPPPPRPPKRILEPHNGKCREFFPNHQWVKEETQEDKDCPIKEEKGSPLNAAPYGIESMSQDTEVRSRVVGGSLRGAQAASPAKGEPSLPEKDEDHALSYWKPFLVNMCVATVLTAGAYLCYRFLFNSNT
assay-protocol: Mixed-type inhibition of human recombinant GST-tagged PTP1B expressed in Escherichia coli TB1 cells using p-NPP as substrate by double reciprocal plot analysis
Express it in µM; write the number only.

Take a look at these entries with their results.
{"smiles-structure": "CCOC(=O)C(=O)Nc1nc2ccc(C)cc2s1", "Ki (µM)": 6.2}
{"smiles-structure": "CCOC(=O)C(=O)Nc1nc2ccc(F)cc2s1", "Ki (µM)": 7.9}

# context switch: different molecule, same Ki
(Q) # query: Ki of entry CCOC(=O)C(=O)Nc1nc2ccc(Cl)cc2s1
(A) 7.9
